# Tested on: ischiadic nerve (N. ischiadieus)
# protocol-text: Local anaesthetizing effect on the ischiadic nerve of rats (method of Truant), Lidocaine as reference
# Format: in vivo
# study-conditions: local anaesthesia, relative to Lidocaine
Assign class by Relative efficiency: not lower than 0.8 means YES; lower than 0.8 means NO.

# count of solved cases: 5
compound | class-label
CC(C)N(CCON=C1CCCCCCCCCCC1)C(C)C [Example 5] | NO
c1ccc(CN2CCN(CCCON=C3CCCCCCCCCCC3)CC2)cc1 [Example 6] | NO
CCN(CC)CC(C)CON=C1CCCCCCCCCCC1 (stereo not drawn) [Example 11] | YES
CC(CON=C1CCCCCCCCCCC1)CN(C)C (racemic) [Example 4] | NO
CCN(CC)CCCON=C1CCCCCCCCCCC1 [Example 10] | YES

Now take the following compound into account.
IN: Reported Relative efficiency reaches at least 0.8 for CN(C)CCCON=C1CCCCCCCCCCC1 [Example 1] ?
OUT: NO

----------
# protocol-text: in vivo
# study-conditions: mouse, mice, oral
Reported LD50 by item:
The figure you give is taken to be in mg/kg; do not add the unit.

molecule | LD50 (mg/kg)
c1ccc(CN2CCN(CCCON=C3CCCCCCCCCCC3)CC2)cc1 [Example 6] | 900
CN(C)CCON=C1CCCCCCCCCCC1 [Example 2] | 780
CC(C)N(CCCON=C1CCCCCCCCCCC1)C(C)C [Example 12] | 650
CN(C)CCCON=C1CCCCCCCCCCC1 [Example 1] | 560
CC(C)N(CCON=C1CCCCCCCCCCC1)C(C)C [Example 5] | 800

So for CN1CCN(CCCON=C2CCCCCCCCCCC2)CC1 [Example 7] , the logged LD50 turned out to be 1100

So for CCN(CC)CC(C)CON=C1CCCCCCCCCCC1 (centres unmarked) [Example 11] , the logged LD50 turned out to be 400

So for CC(CON=C1CCCCCCCCCCC1)CN(C)C (racemic) [Example 4] , the logged LD50 turned out to be 680

----------
# System: ischiadic nerve (N. ischiadieus)
# protocol-text: Local anaesthetizing effect on the ischiadic nerve of rats (method of Truant), Lidocaine as reference
# Assay type: in vivo
# study-conditions: local anaesthesia, relative to Lidocaine
property-label: Relative efficiency
Answer with the value's number alone.

Sample records with Relative efficiency:
compound | Relative efficiency
CC(C)N(CCCON=C1CCCCCCCCCCC1)C(C)C | 1.68
CCN(CC)CC(=O)Nc1c(C)cccc1C [Lidocaine, reference compound] | 1.0

Let us move to another entry and its Relative efficiency.
So for CN(C)CCON=C1CCCCCCCCCCC1 , the logged Relative efficiency turned out to be 0.67

----------
Reported selectivity ratio by item:
# protocol-text: Nicotine-lethality inhibiting effect in mice, oral (method of Stone)
# Format: in vivo
# study-conditions: mouse, in vivo, LD50 and ED50 in mice, read-out: Therapeutic index
Answer with the value's number alone.

Sample records with selectivity ratio:
compound | selectivity ratio
CN(C)CCON=C1CCCCCCCCCCC1 | 27.9
c1ccc(CN2CCN(CCCON=C3CCCCCCCCCCC3)CC2)cc1 | 5

Let us move to another entry and its selectivity ratio.
So for CC(C)N(CCON=C1CCCCCCCCCCC1)C(C)C , the logged selectivity ratio turned out to be 80

----------
Reported selectivity ratio by item:
# protocol-text: Nicotine-lethality inhibiting effect in mice, oral (method of Stone)
# Assay type: in vivo
# study-conditions: mouse, in vivo, LD50 and ED50 in mice, read-out: Therapeutic index
Answer with the value's number alone.

Sample records with selectivity ratio:
compound | reported-result
CN1CCN(CCCON=C2CCCCCCCCCCC2)CC1 | 16.2
CC(C)N(CCCON=C1CCCCCCCCCCC1)C(C)C | 5

So for CCN(CC)CC(C)CON=C1CCCCCCCCCCC1 (centres unmarked) , the logged selectivity ratio turned out to be 5

So for CC(CON=C1CCCCCCCCCCC1)CN(C)C (racemic) , the logged selectivity ratio turned out to be 14.8

So for CN(C)CCCON=C1CCCCCCCCCCC1 , the logged selectivity ratio turned out to be 14.4
